- Procedure Details: Rat pharmacokinetics, PO
- Type: in vivo
- Experimental Context: male rat, PO 5 mg/kg oral gavage, plasma, Linear/log trapezoidal; read-out: Rat PO AUC0-t
What AUC(0-t) was measured for each of the following?

Task: Give recorded AUC(0-t). CCn1nccc1C(=O)N[C@H](C(=O)Nc1ccc([C@H](C)[C@@H](NC(=O)COC)C(=O)N2CCN(C)C(CF)C2)cc1F)C(C1CC1)C1CC1 (single isomer, unassigned)
Result: > 1000 ng·h/mL

Task: Tell me measured AUC(0-t) for CCn1nccc1C(=O)N[C@H](C(=O)Nc1ccc([C@H](C)[C@@H](NC(=O)N(C)C2CC2)C(=O)N2CCN(C)CC2)cc1F)C(C1CC1)C1CC1 please.
Result: < 500 ng·h/mL

Task: Look up AUC(0-t) of CCC(=O)N[C@@H](C(=O)N1CCN(C)[C@H](C)C1)[C@@H](C)c1ccc(NC(=O)[C@@H](NC(=O)c2ccnn2CCF)[C@H]2CC[C@H](C)CC2)c(F)c1 [F, reference compound] and report it.
Result: 500 to 1000 ng·h/mL

Task: // fetch AUC(0-t) given entry CCn1nccc1C(=O)N[C@H](C(=O)Nc1ccc([C@H](C)[C@@H](NC(=O)COC)C(=O)N2CCN(C)CC2)cc1F)[C@H]1CC[C@H](C)CC1 [K, reference compound]
Result: 500 to 1000 ng·h/mL

Task: Return the recorded AUC(0-t) value; entry: CCC(=O)N[C@@H](C(=O)N1CCN(C)[C@H](C)C1)[C@@H](C)c1ccc(NC(=O)[C@@H](NC(=O)c2ccnn2CC)[C@H]2CC[C@H](C)CC2)c(F)c1 [G, reference compound]
Result: 500 to 1000 ng·h/mL

Task: Indicate its recorded AUC(0-t); the compound in question is CCn1nccc1C(=O)N[C@H](C(=O)Nc1ccc([C@H](C)[C@@H](NC(=O)N(C)C2CC2)C(=O)N2CCN(C)CC2)cc1F)[C@H]1CC[C@H](C)CC1 [J, reference compound]
Result: < 500 ng·h/mL

Task: Tell me its AUC(0-t) given CCC(=O)N[C@@H](C(=O)N1CCN(C)[C@H](C)C1)[C@@H](C)c1ccc(NC(=O)[C@@H](NC(=O)c2ccnn2CC(F)F)[C@H]2CC[C@H](C)CC2)c(F)c1 [E, reference compound] as the entry.
Result: 500 to 1000 ng·h/mL

Task: Quickly give me recorded AUC(0-t) for CCC(=O)N[C@@H](C(=O)N1CCN(C)[C@H](C)C1)[C@@H](C)c1ccc(NC(=O)[C@@H](NC(=O)c2ccnn2CC)C(C2CC2)C2CC2)c(F)c1
Result: 500 to 1000 ng·h/mL

Task: Tell us which AUC(0-t) value is on record for CCC(=O)N[C@@H](C(=O)N1CCN(C)CC1)[C@@H](C)c1ccc(NC(=O)[C@@H](NC(=O)c2ccnn2C(C)C)[C@H]2CC[C@H](C)CC2)c(F)c1 [L, reference compound]
Result: 500 to 1000 ng·h/mL

Task: Tell me AUC(0-t) reported for CCC(=O)N[C@@H](C(=O)N1CCN(C)[C@H](C)C1)[C@@H](C)c1ccc(NC(=O)[C@@H](NC(=O)C2(F)CC2)[C@H]2CC[C@H](C)CC2)c(F)c1 [H, reference compound]
Result: < 500 ng·h/mL
